tested on: MDA−MB−231 cells; experiment: Western blot protein expression; assay type: cell-based; settings: MDA−MB−231, IC50, 72 h, representative blot Figure S27E
READOUT_LABEL: ATG4B/GAPDH normalized to control (1)

>>> value_reported("Cc1c(C)c2cccnc2c2ncccc12.N[C@H]1CCCC[C@@H]1N.O=[N+]([O-])[O-].O=[N+]([O-])[O-].[OH][Pt+2][OH]")
2.179
>>> value_reported("Cc1c(C)c2cccnc2c2ncccc12.N[C@H]1CCCC[C@@H]1N.O=[N+]([O-])[O-].O=[N+]([O-])[O-].[Pt+2]")
2.107
>>> value_reported("N[C@H]1CCCC[C@@H]1N.O=[N+]([O-])[O-].O=[N+]([O-])[O-].[OH-].[OH-].[Pt+4].c1cnc2c(c1)ccc1cccnc12")
1.581
>>> value_reported("N[C@H]1CCCC[C@@H]1N.O=[N+]([O-])[O-].O=[N+]([O-])[O-].[Pt+2].c1cnc2c(c1)ccc1cccnc12")
1.546
>>> value_reported("Cc1cc2cccnc2c2ncccc12.N[C@H]1CCCC[C@@H]1N.O=[N+]([O-])[O-].O=[N+]([O-])[O-].[Pt+2]")
1.839
>>> value_reported("Cc1cc2cccnc2c2ncccc12.N[C@H]1CCCC[C@@H]1N.O=[N+]([O-])[O-].O=[N+]([O-])[O-].[OH][Pt+2][OH]")
2.797
>>> value_reported("N.N.[Cl][Pt][Cl] [Cisplatin, cisplatin]")
1.551

###

test system: MDA−MB−231; assay: WST-1 cytotoxicity, 72 h; assay type: cell-based; conditions: IC50 MCF10A/IC50 MDA−MB−231
Tag: fulfilled if measured Selective cytotoxicity index (SCI) is not below 4, not fulfilled if it is.

>>> qualitative_label("Cc1cc2cccnc2c2ncccc12.N[C@H]1CCCC[C@@H]1N.O=[N+]([O-])[O-].O=[N+]([O-])[O-].[OH][Pt+2][OH]")
"fulfilled"
>>> qualitative_label("N[C@H]1CCCC[C@@H]1N.O=[N+]([O-])[O-].O=[N+]([O-])[O-].[Pt+2].c1cnc2c(c1)ccc1cccnc12")
"not fulfilled"
>>> qualitative_label("Cc1c(C)c2cccnc2c2ncccc12.N[C@H]1CCCC[C@@H]1N.O=[N+]([O-])[O-].O=[N+]([O-])[O-].[Pt+2]")
"not fulfilled"
>>> qualitative_label("N[C@H]1CCCC[C@@H]1N.O=[N+]([O-])[O-].O=[N+]([O-])[O-].[OH-].[OH-].[Pt+4].c1cnc2c(c1)ccc1cccnc12")
"fulfilled"
>>> qualitative_label("Cc1c(C)c2cccnc2c2ncccc12.N[C@H]1CCCC[C@@H]1N.O=[N+]([O-])[O-].O=[N+]([O-])[O-].[OH][Pt+2][OH]")
"fulfilled"
>>> qualitative_label("Cc1cc2cccnc2c2ncccc12.N[C@H]1CCCC[C@@H]1N.O=[N+]([O-])[O-].O=[N+]([O-])[O-].[Pt+2]")
"not fulfilled"

###

Below: a set of entries, each annotated with reported Intracellular/extracellular ratio.
test system: MDA−MB−231 cells; assay: Cellular uptake of Pt by ICP-MS; format: cell-based; settings: MDA−MB−231, extracellular 3 µM, 30 h
READOUT_LABEL: Intracellular/extracellular ratio

>>> value_reported("Cc1c(C)c2cccnc2c2ncccc12.N[C@H]1CCCC[C@@H]1N.O=[N+]([O-])[O-].O=[N+]([O-])[O-].[Pt+2] [Pt^II56MESS]")
1765.95
>>> value_reported("N[C@H]1CCCC[C@@H]1N.O=[N+]([O-])[O-].O=[N+]([O-])[O-].[OH-].[OH-].[Pt+4].c1cnc2c(c1)ccc1cccnc12")
203.38
>>> value_reported("Cc1cc2cccnc2c2ncccc12.N[C@H]1CCCC[C@@H]1N.O=[N+]([O-])[O-].O=[N+]([O-])[O-].[Pt+2] [Pt^II5MESS]")
1199.77
>>> value_reported("N[C@H]1CCCC[C@@H]1N.O=[N+]([O-])[O-].O=[N+]([O-])[O-].[Pt+2].c1cnc2c(c1)ccc1cccnc12")
752.93
>>> value_reported("Cc1cc2cccnc2c2ncccc12.N[C@H]1CCCC[C@@H]1N.O=[N+]([O-])[O-].O=[N+]([O-])[O-].[OH][Pt+2][OH] [Pt^IV5MESS(OH)2]")
371.97
